FYI, the data here is from patent US20250269048A1.

- testTarget: T1, human CD7 (human, UniProt P09564 26-180, limits assumed)
- T1 construct: The construct is not described
- T1 sequence (looked up): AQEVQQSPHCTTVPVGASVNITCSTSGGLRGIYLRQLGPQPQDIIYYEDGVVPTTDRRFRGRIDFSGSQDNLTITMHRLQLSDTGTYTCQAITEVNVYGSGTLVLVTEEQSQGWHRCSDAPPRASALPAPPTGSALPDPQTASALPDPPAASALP
- test: SPR; reference 7-PP-1 WT
Fold Reduction in binding affinity compared to PP WT (Kd) listing for selected binders.
Reply numerically in fold, unit not repeated.

Below, 2 binders whose answers are already recorded.
1) CD7-PP-7 CD7 binding arm (Fab, V domains shown, Heavy chain Arg57Gly/Tyr108Ala) VH: QVQLQESGAELVKPGASVKLSCKASGYTFTSYWMHWVKQRPGQGLEWIGKINPSNGGTNYNEKFKSKATLTVDKSSSTAYMQLSSLTSEDSAVYYCARGGVYYDLYYAALDYWGQGTTVTVSS VL: DIELTQSPATLSVTPGDSVSLSCRASQSISNNLHWYQQKSHESPRLLIKSASQSISGIPSRFSGSGSGTDFTLSINSVETEDFGMYFCQQSNSWPYTFGGGTKLEIKR; 152
2) CD7-PP-3 CD7 binding arm (Fab, V domains shown, Heavy chain Arg57Lys) VH: QVQLQESGAELVKPGASVKLSCKASGYTFTSYWMHWVKQRPGQGLEWIGKINPSNGKTNYNEKFKSKATLTVDKSSSTAYMQLSSLTSEDSAVYYCARGGVYYDLYYYALDYWGQGTTVTVSS VL: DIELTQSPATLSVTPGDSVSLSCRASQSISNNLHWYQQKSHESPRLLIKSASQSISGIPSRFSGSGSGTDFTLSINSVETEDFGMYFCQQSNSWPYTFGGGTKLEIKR; 9.13

# input for lookup
[in] Look up Fold Reduction in binding affinity compared to PP WT (Kd) of 7-PP-11 (Fab, V domains shown) VH: QVQLQESGAELVKPGASVKLSCKASGYTFTSYWMHWVKQRPGQGLEWIGKINPSNGRTNYNEKFKSKATLTVDKSSSTAYMQLSSLTSEDSAVYYCARGGVYYALYYAALDYWGQGTTVTVSS VL: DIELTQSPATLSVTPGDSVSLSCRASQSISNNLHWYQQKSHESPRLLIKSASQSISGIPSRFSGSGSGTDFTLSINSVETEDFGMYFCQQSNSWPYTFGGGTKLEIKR and report it.
[out] 69.1
